Ref: ChEMBL document CHEMBL1157850

I'd appreciate it if you could supply EC50 values for the items below.
Species: Rattus norvegicus
experimentalProtocol: Antioxidant activity in Wistar albino rat assessed as inhibition of catalase activity
Assay type: functional, organism-based
recordedConditions: Rattus norvegicus, Wistar albino; read-out: EC50
Answer in µg/mL, number only, no unit symbol.

IN: Consider the molecule shown here: CCCC(NP1(=S)Oc2ccccc2CN1c1ccc(N2Cc3ccccc3OP2(=S)NC(CCC)C(=O)OCC)cc1)C(=O)OCC (stereo not drawn) What is its recorded EC50?
OUT: 3.23

IN: Entry COC(=O)C(Cc1c[nH]cn1)NP1(=S)Oc2ccccc2CN1c1ccc(N2Cc3ccccc3OP2(=S)NC(Cc2c[nH]cn2)C(=O)OC)cc1 (stereo not drawn) has what EC50?
OUT: 1.75

IN: Given the molecule COC(=O)C(NP1(=S)Oc2ccccc2CN1c1ccc(N2Cc3ccccc3OP2(=S)NC(C(=O)OC)C(C)C)cc1)C(C)C (stereo not drawn) , what is its reported EC50?
OUT: 4.89
